Exercise: state measured log10(IC (TGI)) for each of the compounds provided.
- Tested on: PANC-1
- ASSAY: Inhibition of cells growth by colorimetric assay (SRB)
- EXPERIMENTAL SETUP: Homo sapiens, PANC-1, 48 h, read-out: PANC-1 TGI
Hey, these are logged values: log10 of IC (TGI), nM being the unit before logging.

Some solved cases for reference:
COMPOUND	PROPERTY NAME	REPORTED
COc1cc2c(cc1O)CCN[C@]21CS[C@@H]2c3c(O)c(C)c4c(c3[C@H](COC1=O)N1C2[C@@H]2N[C@@H](Cc3cc(C)c(OC)c(O)c32)[C@@H]1O)OCO4 (stereo partly shown) [compound 68]	log10(IC (TGI))	1.11
C=CCN1[C@@H]2c3c(cc(C)c(OC)c3O)C[C@H]1[C@H](C#N)N1C2[C@@H]2SC[C@]3(NCCc4c3[nH]c3ccccc43)C(=O)OC[C@H]1c1c3c(c(C)c(OC(C)=O)c12)OCO3 (stereo partly shown) [compound 55]	log10(IC (TGI))	3.28
COc1ccc2[nH]c3c(c2c1)CCN[C@]31CS[C@@H]2c3c(OC(C)=O)c(C)c4c(c3[C@H](COC1=O)N1C2[C@@H]2N[C@@H](Cc3cc(C)c(OC)c(O)c32)[C@@H]1C#N)OCO4 (stereo partly shown) [compound 60]	log10(IC (TGI))	1.08
C=CCN1[C@@H]2c3c(cc(C)c(OC)c3O)C[C@H]1[C@H](C#N)N1C2[C@@H]2SC[C@]3(NCCc4cc(OC(=O)OC(C)(C)C)c(OC)cc43)C(=O)OC[C@H]1c1c3c(c(C)c(O)c12)OCO3 (stereo partly shown) [compound 46]	log10(IC (TGI))	2.60
C=CCN1[C@@H]2c3c(cc(C)c(OC)c3O)C[C@H]1[C@H](C#N)N1C2[C@@H]2SC[C@]3(NCCc4cc(O)c(OC)cc43)C(=O)OC[C@H]1c1c3c(c(C)c(OC(=O)/C=C/c4ccccc4)c12)OCO3 (stereo partly shown) [compound 49]	log10(IC (TGI))	2.75
COc1cc2c(cc1O)CCN[C@]21CS[C@@H]2c3c(OC(C)=O)c(C)c4c(c3[C@H](COC1=O)N1C2C2c3c(cc(C)c(OC)c3O)C[C@@H]([C@@H]1C#N)N2C)OCO4 (stereo partly shown) [Et-770]	log10(IC (TGI))	2.06
COc1cc2c(cc1O)CCN[C@]21CS[C@@H]2c3c(OC(=O)/C=C/c4ccccc4)c(C)c4c(c3[C@H](COC1=O)N1C2[C@@H]2N[C@@H](Cc3cc(C)c(OC)c(O)c32)[C@@H]1O)OCO4 (stereo partly shown) [compound 53]	log10(IC (TGI))	1.00
CCC(=O)NC1CS[C@@H]2c3c(OC(C)=O)c(C)c4c(c3[C@H](COC1=O)N1C2[C@@H]2N[C@@H](Cc3cc(C)c(OC)c(O)c32)[C@@H]1C#N)OCO4 (stereo partly shown) [compound 33]	log10(IC (TGI))	2.09
C=CCN1[C@@H]2c3c(cc(C)c(OC)c3O)C[C@H]1[C@H](C#N)N1C2[C@@H]2SC[C@]3(NCCc4cc(OC(=O)OC(C)(C)C)c(OC)cc43)C(=O)OC[C@H]1c1c3c(c(C)c(OC(=O)CCCCCCC)c12)OCO3 (stereo partly shown) [compound 48]	log10(IC (TGI))	4.01

Now take the following compound into account.
According to the records, this compound COc1c(C)cc2c(c1OC(=O)/C=C/c1ccccc1)[C@H]1N[C@@H](C2)[C@H](C#N)N2C1[C@@H]1SCC(NC(=O)C(F)(F)F)C(=O)OC[C@H]2c2c3c(c(C)c(OC(C)=O)c21)OCO3 (stereo partly shown) [compound 34] displays log10(IC (TGI)) of 2.09
